Recorded measurements of IC50, one per entry
measuredTarget: CDK2/Cyclin E1 complex (Homo sapiens)
method: CDK2 inhibition assay (Caliper/LabChip EZ Reader kinase assay)
Type: biochemical
testContext: Table 1; CDK2/Cyclin E1 0.5 nM, ATP 2 mM, 35 min at 27° C.
property: IC50

compound: O=C(c1ccc2c(-c3nc(N[C@H]4CCCNC4)ncc3C(F)(F)F)c[nH]c2c1)N1CC[C@@](O)(C(F)(F)F)C1 (single isomer, unassigned)
endpointResult: 0.2 to 5 µM
--
compound: CC1CCNCC1Nc1ncc(C(F)(F)F)c(-c2c[nH]c3ccccc23)n1 (single isomer, unassigned) [Compound 373]
endpointResult: > 5 µM
--
compound: FC(F)(F)c1cnc(N[C@H]2CCCNC2)nc1-c1c[nH]c2cc(-c3nccs3)ccc12
endpointResult: 0.2 to 5 µM
--
compound: CCc1cnc(N[C@H]2CCCNC2)nc1-c1c[nH]c2c(S(C)(=O)=O)cccc12
endpointResult: 0.2 to 5 µM
--
compound: CCc1cnc(N[C@H]2CCCNC2)nc1-c1c[nH]c2c(S(=O)(=O)C(C)C)cccc12
endpointResult: > 5 µM
--
compound: CSc1cnc(N[C@H]2CCCNC2)nc1-c1c[nH]c2cc(C#N)ccc12
endpointResult: 0.2 to 5 µM
--
compound: CC[C@@]1(O)CCN(C(=O)c2ccc3c(-c4nc(N[C@H]5CCCNC5)ncc4C(F)(F)F)c[nH]c3c2)C1 (single isomer, unassigned)
endpointResult: > 5 µM
